The values you see were collected from patent US7977387B2.

Test system: TNF-α
method.summary: Inhibition of TNF-α secretion in LPS stimulated peripheral blood mononuclear cells
Assay type: cell-based
experimental.setup: PBMC; LPS stimulated human peripheral blood mononuclear cells, 18 hours, ELISA; read-out: The median inhibition concentration (IC50, nM) of TNF-α
Rule: IC50 below 0.9 nM gives T, anything at or above gives F.

Would you please look over these solved cases?
Problem: For the compound COC(=O)CCC(=O)CNC(=O)c1ccc(C)c(C(=O)c2ccc(Nc3ccc(F)cc3F)cc2Cl)c1 , is IC50 under 0.9 nM? F

Below 0.9 nM on IC50? Entry Cc1ccc(C(=O)NCCCCO)cc1C(=O)c1ccc(Nc2ccc(F)cc2F)cc1Cl F

Others:
Hello, I'm reviewing records and need to know if IC50 of COc1ccc(C(=O)NCCO)cc1C(=O)c1ccc(Nc2c(F)cccc2F)cc1Cl is below 0.9 nM. Could you check? F

Given the entry COCCCNC(=O)c1ccc(C)c(C(=O)c2ccc(Nc3ccc(Cl)cc3F)cc2Cl)c1 , would its reported IC50 be below 0.9 nM? F

IC50 under 0.9 nM? Item: Cc1ccc(C(=O)NCCO)cc1C(=O)c1ccc(Nc2ccc(F)cc2)cc1Cl T

Given Cc1ccc(C(=O)NCCO)cc1C(=O)c1ccc(Nc2ccc(F)cc2F)cc1Cl , is recorded IC50 strictly lower than 0.9 nM? T

Given COc1ccc(C(=O)NCC(O)CO)cc1C(=O)c1ccc(Nc2ccc(F)cc2)cc1Cl (centres unmarked) , is recorded IC50 strictly lower than 0.9 nM? T

====

System: IL-1β
method.summary: Inhibition of IL-1β secretion in LPS stimulated peripheral blood mononuclear cells
Format: cell-based
experimental.setup: PBMC; LPS stimulated human peripheral blood mononuclear cells, 18 hours, ELISA; read-out: The median inhibition concentration (IC50, nM) of IL-1β
Checkbox rule: IC50 lower than 4 nM = class 1; IC50 not lower than 4 nM = class 0.

Determine if COc1ccc(C(=O)NCC(O)CO)cc1C(=O)c1ccc(Nc2ccc(F)cc2F)cc1Cl (stereo not shown) [Compound 143] shows IC50 strictly lower than 4 nM. class 1

Dear colleague, could you confirm whether IC50 of Cc1ccccc1C(=O)c1ccc(Nc2cccc(F)c2C)cc1Cl [Ref. comp. f, reference compound] falls below 4 nM? Thanks. class 0

Strictly below 4 nM in IC50? COCCC(=O)Nc1ccc(C)c(C(=O)c2ccc(Nc3ccc(F)cc3F)cc2Cl)c1 [Compound 241] class 1

Hello, is IC50 of the following molecule strictly smaller than 4 nM? Cc1ccc(-c2cccc(CO)c2)cc1C(=O)c1ccc(Nc2ccc(F)cc2F)cc1Cl [Compound 282] class 0

Bench note: check whether CCC(CO)NC(=O)c1ccc(C)c(C(=O)c2ccc(Nc3ccc(F)cc3F)cc2Cl)c1 (stereo not shown) [Compound 153] shows IC50 below 4 nM class 0

Consider the molecule Cc1ccc(C(=O)NCCO)cc1C(=O)c1ccc(Nc2ccccc2)cc1Cl [Compound 191] . Is its IC50 strictly less than 4 nM? class 1

Does COc1ccc(C(=O)NCCF)cc1C(=O)c1ccc(Nc2ccccc2)cc1Cl [Compound 201] have IC50 strictly under 4 nM? class 0

====

Would you kindly list IC50 for each of these molecules?
Test system: IL-1β
method.summary: Inhibition of IL-1β secretion in LPS stimulated peripheral blood mononuclear cells
Type: cell-based
experimental.setup: PBMC; LPS stimulated human peripheral blood mononuclear cells, 18 hours, ELISA; read-out: The median inhibition concentration (IC50, nM) of IL-1β

The following molecules have reported results that may help.
Give the value of IC50 reported for the following: COCCNC(=O)c1ccc(C)c(C(=O)c2ccc(Nc3ccccc3N)cc2Cl)c1 [Compound 116] 1 nM

// fetch IC50 given entry CCOC(=O)CNC(=O)c1ccc(C)c(C(=O)c2ccc(Nc3ccc(Cl)cc3F)cc2Cl)c1 [Compound 123] 0.5 nM

Kindly indicate its recorded IC50. Item: CCNC(=O)c1ccc(C)c(C(=O)c2ccc(Nc3ccc(F)cc3F)cc2Cl)c1 [Compound 149] 1.6 nM

// for each molecule in input: emit IC50
1. Cc1ccc(C(=O)NC(C)(C)CO)cc1C(=O)c1ccc(Nc2ccc(F)cc2F)cc1Cl [Compound 156]
2. CCOC(=O)CNC(=O)Nc1ccc(C)c(C(=O)c2ccc(Nc3ccc(F)cc3F)cc2Cl)c1 [Compound 261]
3. Cc1ccc(NC(=O)C2CC(=O)NC(=O)N2)cc1C(=O)c1ccc(Nc2ccc(F)cc2F)cc1Cl (centres unmarked) [Compound 249]
4. Cc1ccc(C(=O)NCC(F)(F)F)cc1C(=O)c1ccc(Nc2ccc(F)cc2F)cc1Cl [Compound 148]
5. Cc1ccc(NC(=O)CCS(C)(=O)=O)cc1C(=O)c1ccc(Nc2ccc(F)cc2F)cc1Cl [Compound 252]
6. C=CCOC(=O)Nc1ccc(C)c(C(=O)c2ccc(Nc3ccc(F)cc3F)cc2Cl)c1 [Compound 278]

1: 4.5 nM; 2: 2.2 nM; 3: 1.6 nM; 4: 0.6 nM; 5: 0.6 nM; 6: 1.3 nM

====

Tested on: TNF-α
method.summary: Inhibition of TNF-α secretion in LPS stimulated peripheral blood mononuclear cells
Assay type: cell-based
experimental.setup: PBMC; LPS stimulated human peripheral blood mononuclear cells, 18 hours, ELISA; read-out: The median inhibition concentration (IC50, nM) of TNF-α
Field: IC50. Provide a value for each of the molecules that follow.
Numbers only, in nM.

Find the measured IC50 of Cc1ccc(NC(=O)CCS(C)(=O)=O)cc1C(=O)c1ccc(Nc2ccc(F)cc2F)cc1Cl with TNF-α as test system. 0.6

Report IC50 on TNF-α for this entry: COc1ccc(C(=O)NCC(F)F)cc1C(=O)c1ccc(Nc2ccc(F)cc2)cc1Cl 1

Using TNF-α as the test system, report measured IC50 of Cc1ccc(C(=O)NC(C)C)cc1C(=O)c1ccc(Nc2ccc(F)cc2F)cc1Cl . 2

Could you now consider this next molecule?
State, for TNF-α, measured IC50 of the molecule listed here: CCOC(=O)CNC(=O)CNC(=O)c1ccc(OC)c(C(=O)c2ccc(Nc3c(F)cccc3F)cc2Cl)c1 0.7

====

System: IL-1β
method.summary: Inhibition of IL-1β secretion in LPS stimulated peripheral blood mononuclear cells
Type: cell-based
experimental.setup: PBMC; LPS stimulated human peripheral blood mononuclear cells, 18 hours, ELISA; read-out: The median inhibition concentration (IC50, nM) of IL-1β
Provide the reported IC50 of each item.
One number for each entry, in nM.

A selection of reference data follows.
Answer with the recorded IC50 of CSCCC(=O)Nc1ccc(C)c(C(=O)c2ccc(Nc3ccc(F)cc3F)cc2Cl)c1 [Compound 251] only. 1.1

Give recorded IC50. Cc1ccc(NC(=O)NC2CCCCC2)cc1C(=O)c1ccc(Nc2ccc(F)cc2F)cc1Cl [Compound 266] 0.9

Return reported IC50. Input compound: COc1ccc(C(=O)NCCCO)cc1C(=O)c1ccc(Nc2c(F)cccc2F)cc1Cl [Compound 176] 3.2

Look up and state reported IC50 for Cc1ccc(C(=O)NCC(F)(F)C(F)(F)F)cc1C(=O)c1ccc(Nc2ccc(F)cc2F)cc1Cl [Compound 154] 3.2

// below: IC50 requested for another compound
// Input: Cc1ccc(NC(=O)CCO)cc1C(=O)c1ccc(Nc2ccc(F)cc2F)cc1Cl [Compound 245] . Output its IC50 only. 3.5

====

Test system: TNF-α
method.summary: Inhibition of TNF-α secretion in LPS stimulated peripheral blood mononuclear cells
Format: cell-based
experimental.setup: PBMC; LPS stimulated human peripheral blood mononuclear cells, 18 hours, ELISA; read-out: The median inhibition concentration (IC50, nM) of TNF-α
For each entry below, report its IC50 value.
Answers are plain numbers, in nM.

Some solved cases for reference:
Tell me its IC50 on TNF-α: CC(=O)Nc1cccc(-c2ccc(C)c(C(=O)c3ccc(Nc4ccc(F)cc4F)cc3Cl)c2)c1 0.6

Consider the compound COc1ccc(C(=O)NCCO)cc1C(=O)c1ccc(Nc2ccc(F)cc2)cc1Cl tested on TNF-α; state its IC50. 0.3

Lab note: TNF-α assay, enter IC50 for Cc1ccc(C(=O)NCC(F)(F)C(F)(F)F)cc1C(=O)c1ccc(Nc2ccc(F)cc2F)cc1Cl here 2.5

State IC50 on TNF-α. Entry: Cc1ccc(NC(=O)CCN2CCOCC2)cc1C(=O)c1ccc(Nc2ccc(F)cc2F)cc1Cl 0.5

Turning now to a further record.
Recall the reported IC50 of Cc1ccc(C(=O)NCC(C)O)cc1C(=O)c1ccc(Nc2ccc(F)cc2F)cc1Cl (centres unmarked) when tested on TNF-α. 0.4

====

Test system: IL-1β
method.summary: Inhibition of IL-1β secretion in LPS stimulated peripheral blood mononuclear cells
Type: cell-based
experimental.setup: PBMC; LPS stimulated human peripheral blood mononuclear cells, 18 hours, ELISA; read-out: The median inhibition concentration (IC50, nM) of IL-1β
// boundary case: IC50 equal to 3 nM maps to 0; strictly smaller maps to 1

Example entries and their recorded answers appear below.
Does this molecule meet the criterion IC50 < 3 nM? COCCOCC(=O)Nc1ccc(C)c(C(=O)c2ccc(Nc3ccc(F)cc3F)cc2Cl)c1 1

Please indicate whether the reported IC50 of CCOC(=O)CNC(=O)CNC(=O)c1ccc(C)c(C(=O)c2ccc(Nc3ccc(Cl)cc3F)cc2Cl)c1 is strictly below 3 nM. 1

Find out if reported IC50 for CCC(=O)Nc1ccc(C)c(C(=O)c2ccc(Nc3ccc(F)cc3F)cc2Cl)c1 is less than 3 nM 1

Find out if reported IC50 for CCNC(=O)c1ccc(C)c(C(=O)c2ccc(Nc3ccc(Cl)cc3F)cc2Cl)c1 is less than 3 nM 1

Is it true that IC50 reported for Cc1ccc(C(=O)NCCCO)cc1C(=O)c1ccc(Nc2ccccc2N)cc1Cl is less than 3 nM? 1

Continuing:
Bench note: check whether CCOC(=O)Nc1ccc(C)c(C(=O)c2ccc(Nc3ccc(F)cc3F)cc2Cl)c1 shows IC50 below 3 nM 1

Determine whether this molecule shows IC50 lower than 3 nM (ties excluded): CCCCNC(=O)Nc1ccc(C)c(C(=O)c2ccc(Nc3ccc(F)cc3F)cc2Cl)c1 1

IC50 strictly < 3 nM for this molecule? COc1ccc(C(=O)NCC(N)=O)cc1C(=O)c1ccc(Nc2ccccc2)cc1Cl 0

Strictly below 3 nM: is that where IC50 of Cc1ccc(C(=O)NCCCCO)cc1C(=O)c1ccc(Nc2ccc(F)cc2F)cc1Cl sits? 0

Take the molecule CCNC(=O)Nc1ccc(C)c(C(=O)c2ccc(Nc3ccc(F)cc3F)cc2Cl)c1 and say whether its IC50 is less than 3 nM. 1

Take the molecule COc1ccc(C(=O)NC(C)(CO)CO)cc1C(=O)c1ccc(Nc2c(F)cccc2F)cc1Cl and say whether its IC50 is less than 3 nM. 1

Is it true that IC50 reported for Cc1ccc(NC(=O)c2ccccc2O)cc1C(=O)c1ccc(Nc2ccc(F)cc2F)cc1Cl is less than 3 nM? 0

API: query returns whether the molecule falls strictly under 3 nM in IC50. Query: Cc1ccc(C(=O)NCCO)cc1C(=O)c1ccc(Nc2ccc(F)cc2)cc1Cl 1

A record lists Cc1ccc(C(=O)NCCF)cc1C(=O)c1ccc(Nc2ccc(F)cc2F)cc1Cl . Is its IC50 below 3 nM? 1

Is IC50 strictly under 3 nM for the entry Cc1ccc(C(=O)NCCO)cc1C(=O)c1ccc(Nc2ccc(Cl)cc2F)cc1Cl ? 1

Would you kindly verify if IC50 of Cc1ccc(NC(=O)NCCO)cc1C(=O)c1ccc(Nc2ccc(F)cc2F)cc1Cl is strictly less than 3 nM? 1

Please let me know if COc1ccc(C(=O)NCC(O)CO)cc1C(=O)c1ccc(Nc2ccccc2)cc1Cl (centres unmarked) shows IC50 below 3 nM. 0
